system: TK-10 renal; test: NCI-60 one-dose screen, 48 h; settings: 10 µM unless noted
This is part of a sample that, as a whole, favours compounds with a hit. Of some 83,000 tested, about 20% had one in any assay. The source made the active and inactive calls. How the source made its calls: active means growth percent below 10; inactive means the rest.
Your answer must be one of the following: TRUE for active, FALSE for inactive

# example entries with known answers
{"columns": ["compound", "group label"],
 "data": [
  ["CN(C)C(=O)c1ccc(SC(=S)NCc2ccccc2)cc1", "TRUE"],
  ["CNc1ccc(N)cc1", "FALSE"],
  ["NC1=CC(=O)c2ccccc2C1=O", "FALSE"]
]}

**Q:** Called result for CCCCCCCCCCCCCCCCOP(=O)([O-])OCC[N+](C)(C)C
**A:** TRUE

**Q:** Called result for CN(C)c1ccc(N=Nc2cccc3ccccc23)cc1
**A:** FALSE
